tested on: MOLP-8 human multiple myeloma cell line; assay: Caspase-Glo 3/7 apoptosis induction assay in MOLP-8 cells; format: cell-based; settings: caspase-3/7 activity, 2 hours at 37° C., averaged over all runs on all batches, read-out: MOLP8 AC50
I'd be grateful if you could share measured AC50 for these entries.
Just the number please, in nM, no unit attached.

Prompt line: Could you please provide reported AC50 for `C[C@@H]1[C@@H](C)C/C=C/[C@H](C(=O)N2CCOCC2)N2CC[C@H]2CN2C[C@@]3(CCCc4cc(Cl)ccc43)COc3ccc(cc32)C(=O)NS1(=O)=O` ? Thanks!
Response line: 340

Prompt line: Hello, please tell me recorded AC50 for this one: `COCCN(CCOC)C(=O)[C@H]1/C=C/C[C@H](C)[C@@H](C)S(=O)(=O)NC(=O)c2ccc3c(c2)N(C[C@@H]2CCCN21)C[C@@]1(CCCc2cc(Cl)ccc21)CO3`
Response line: 56

Prompt line: Fill in AC50 for record `C[C@@H]1[C@@H](C)C/C=C/[C@H](C(=O)N2CCOCC2)N2CCC[C@H]2CN2C[C@@]3(CCCc4cc(Cl)ccc43)COc3ccc(cc32)C(=O)NS1(=O)=O`
Response line: 360

Prompt line: Give the reported value of AC50 for this record: CC1CC=CC(C(=O)N(C)CCN2CCOCC2)N2CCCC2CN2CC3(CCCc4cc(Cl)ccc43)COc3ccc(cc32)C(=O)NS(=O)(=O)C1C (stereo not shown)
Response line: 180
